The reported numbers originate from PubChem BioAssay AID1963852.

This section presents compounds with their documented viability, T/C values.
Test system: 282377-053-R-J1-PDC complex spheroid viability
measurementDescription: Anticancer human tumor 282377-053-R-J1-PDC patient-derived colon adenocarcinoma cell line growth inhibition [POLQ]
protocolConditions: second compound 0.316 µM; first compound 0.1 µM; active compounds read low
Entry rule: numbers only, all in %.

CC1COCCN1c1cc(C2(O)CC3CCC(C2)O3)c2cnn(-c3ccn[nH]3)c2n1 (stereo unspecified) + COC1C(OC(N)=O)C(O)C(Oc2ccc3c(O)c(NC(=O)c4ccc(O)c(CC=C(C)C)c4)c(=O)oc3c2C)OC1(C)C : 91.3
O=C(Nc1ccc(O)c(NS(=O)(=O)c2ccc(F)cc2)c1)c1ccc(-c2ccccc2)cc1 + COC1C(OC(N)=O)C(O)C(Oc2ccc3c(O)c(NC(=O)c4ccc(O)c(CC=C(C)C)c4)c(=O)oc3c2C)OC1(C)C : 108
C#Cc1c(F)ccc2cc(O)cc(-c3ncc4c(N5CC6CCC(C5)N6)nc(OCC56CCCN5CC(F)C6)nc4c3F)c12 (stereo unspecified) + COC1C(OC(N)=O)C(O)C(Oc2ccc3c(O)c(NC(=O)c4ccc(O)c(CC=C(C)C)c4)c(=O)oc3c2C)OC1(C)C : 120
CC[C@@]1(O)C(=O)OCc2c1cc1n(c2=O)Cc2cc3c(CN(C)C)c(O)ccc3nc2-1 + COC1C(OC(N)=O)C(O)C(Oc2ccc3c(O)c(NC(=O)c4ccc(O)c(CC=C(C)C)c4)c(=O)oc3c2C)OC1(C)C : 69.3
O=c1[nH]cc(F)c(=O)[nH]1 + Nc1ccc(C#CCN(C(=O)Cc2ncc(C(F)(F)F)cc2C(F)(F)F)c2ccc(F)cc2)nn1 : 98
COc1cccc(OCCCN)c1-c1cc(Nc2cnc(C#N)cn2)n[nH]1 + COC1C(OC(N)=O)C(O)C(Oc2ccc3c(O)c(NC(=O)c4ccc(O)c(CC=C(C)C)c4)c(=O)oc3c2C)OC1(C)C : 46.4

# input for lookup
Input: Given the compound COc1cccc2c1C(=O)c1c(O)c3c(c(O)c1C2=O)CC(O)(C(=O)CO)CC3OC1CC(N)C(O)C(C)O1 (stereo unspecified) + Nc1ccc(C#CCN(C(=O)Cc2ncc(C(F)(F)F)cc2C(F)(F)F)c2ccc(F)cc2)nn1 , what is its reported viability, T/C?
Output: 108

----------
This section presents compounds with their documented viability, T/C values.
System: 282377-053-R-J1-PDC complex spheroid viability
measurementDescription: Anticancer human tumor 282377-053-R-J1-PDC cell line growth inhibition [POLQ];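 note: spheroids exposed to compounds for seven days; 100% = DMSO vehicle control viability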
protocolConditions: second compound 0.316 µM; first compound 0.1 µM; active compounds read low
Entry rule: numbers only, all in %.

Example cases with answers are listed next.
COc1cc(C2c3cc4c(cc3C(OC3OC5COC(C)OC5C(O)C3O)C3COC(=O)C23)OCO4)cc(OC)c1O (stereo unspecified) + Cc1cccc(N(C)C(=O)C2C(O)CCN2c2nc(C)cc(C(F)(F)F)c2C#N)c1 : 98.2
COc1cccc2c1C(=O)c1c(O)c3c(c(O)c1C2=O)CC(O)(C(=O)CO)CC3OC1CC(N)C(O)C(C)O1 (stereo unspecified) + Cc1cccc(N(C)C(=O)C2C(O)CCN2c2nc(C)cc(C(F)(F)F)c2C#N)c1 : 100
O=C(c1cc(Cc2n[nH]c(=O)c3ccccc23)ccc1F)N1CCN(C(=O)C2CC2)CC1 + Cc1cccc(N(C)C(=O)C2C(O)CCN2c2nc(C)cc(C(F)(F)F)c2C#N)c1 : 94
CCc1cc2c(N3CCc4c(cc(Cn5ccnc5)cc4-c4cn(C)nc4C(F)(F)F)C3=O)ccnc2c(OC)n1 + Nc1ccc(C#CCN(C(=O)Cc2ncc(C(F)(F)F)cc2C(F)(F)F)c2ccc(F)cc2)nn1 : 78.8
CCCS(=O)(=O)Nc1ccc(F)c(C(=O)c2c[nH]c3ncc(-c4ccc(Cl)cc4)cc23)c1F + Nc1ccc(C#CCN(C(=O)Cc2ncc(C(F)(F)F)cc2C(F)(F)F)c2ccc(F)cc2)nn1 : 81

Input: Given the compound O=C(Nc1ccc(O)c(NS(=O)(=O)c2ccc(F)cc2)c1)c1ccc(-c2ccccc2)cc1 + Nc1ccc(C#CCN(C(=O)Cc2ncc(C(F)(F)F)cc2C(F)(F)F)c2ccc(F)cc2)nn1 , what is its reported viability, T/C?
Output: 101

Input: Now give it for CCc1cc2c(N3CCc4c(cc(Cn5ccnc5)cc4-c4cn(C)nc4C(F)(F)F)C3=O)cc(C)nc2c(OC)n1 + Cc1cccc(N(C)C(=O)C2C(O)CCN2c2nc(C)cc(C(F)(F)F)c2C#N)c1 too.
Output: 99.8

Input: Now give it for O=c1[nH]cc(F)c(=O)[nH]1 + COC1C(OC(N)=O)C(O)C(Oc2ccc3c(O)c(NC(=O)c4ccc(O)c(CC=C(C)C)c4)c(=O)oc3c2C)OC1(C)C too.
Output: 125

Input: Now give it for O=C(c1cc(Cc2n[nH]c(=O)c3ccccc23)ccc1F)N1CCN(C(=O)C2CC2)CC1 + Nc1ccc(C#CCN(C(=O)Cc2ncc(C(F)(F)F)cc2C(F)(F)F)c2ccc(F)cc2)nn1 too.
Output: 97.1

Input: Now give it for CNCc1ccc(-c2[nH]c3cc(F)cc4c3c2CCNC4=O)cc1 + COC1C(OC(N)=O)C(O)C(Oc2ccc3c(O)c(NC(=O)c4ccc(O)c(CC=C(C)C)c4)c(=O)oc3c2C)OC1(C)C too.
Output: 98.4

Input: Now give it for CNCc1ccc(-c2[nH]c3cc(F)cc4c3c2CCNC4=O)cc1 + Nc1ccc(C#CCN(C(=O)Cc2ncc(C(F)(F)F)cc2C(F)(F)F)c2ccc(F)cc2)nn1 too.
Output: 86.2

----------
This section presents compounds with their documented viability, T/C values.
Tested on: 282377-053-R-J1-PDC complex spheroid viability
measurementDescription: Anticancer human tumor 282377-053-R-J1-PDC cell line growth inhibition [POLQ];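 note: spheroids exposed to compounds for seven days; 100% = DMSO vehicle control viability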
protocolConditions: second compound 3.16 µM; first compound 10 µM; active compounds read low
Entry rule: numbers only, all in %.

Input: Query viability, T/C on 282377-053-R-J1-PDC complex spheroid viability for COc1cc2cc(C(=O)CCC(=O)O)sc2cc1OC + Nc1ccc(C#CCN(C(=O)Cc2ncc(C(F)(F)F)cc2C(F)(F)F)c2ccc(F)cc2)nn1
Output: 90.1

----------
Tested on: 282377-053-R-J1-PDC complex spheroid viability
measurementDescription: Anticancer human tumor 282377-053-R-J1-PDC cell line growth inhibition [POLQ];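 note: spheroids exposed to compounds for seven days; 100% = DMSO vehicle control viability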
protocolConditions: second compound 1 µM; first compound 3.16 µM; active compounds read low
This section presents molecules with their documented viability, T/C values.
Entry rule: numbers only, all in %.

Example cases with answers are listed next.
COc1cc(C2c3cc4c(cc3C(OC3OC5COC(C)OC5C(O)C3O)C3COC(=O)C23)OCO4)cc(OC)c1O (stereo not given) + Nc1ccc(C#CCN(C(=O)Cc2ncc(C(F)(F)F)cc2C(F)(F)F)c2ccc(F)cc2)nn1 : 113
CNCc1ccc(-c2[nH]c3cc(F)cc4c3c2CCNC4=O)cc1 + COC1C(OC(N)=O)C(O)C(Oc2ccc3c(O)c(NC(=O)c4ccc(O)c(CC=C(C)C)c4)c(=O)oc3c2C)OC1(C)C : 128
CC1COCCN1c1cc(C2(S(C)(=N)=O)CC2)nc(-c2ccnc3[nH]ccc23)n1 (stereo not given) + Cc1cccc(N(C)C(=O)C2C(O)CCN2c2nc(C)cc(C(F)(F)F)c2C#N)c1 : 69.5

Input: Given the molecule O=C(c1cc(Cc2n[nH]c(=O)c3ccccc23)ccc1F)N1CCN(C(=O)C2CC2)CC1 + Nc1ccc(C#CCN(C(=O)Cc2ncc(C(F)(F)F)cc2C(F)(F)F)c2ccc(F)cc2)nn1 , what is its reported viability, T/C?
Output: 112

Input: Now give it for CCCS(=O)(=O)Nc1ccc(F)c(C(=O)c2c[nH]c3ncc(-c4ccc(Cl)cc4)cc23)c1F + Nc1ccc(C#CCN(C(=O)Cc2ncc(C(F)(F)F)cc2C(F)(F)F)c2ccc(F)cc2)nn1 too.
Output: 59.1

Input: Now give it for COc1ccc([C@@H](O)c2cc(-c3ncnc4cc(N5CCOCC5)ccc34)c(F)cc2Cl)nn1 + Nc1ccc(C#CCN(C(=O)Cc2ncc(C(F)(F)F)cc2C(F)(F)F)c2ccc(F)cc2)nn1 too.
Output: 88.6

Input: Now give it for COc1cc2cc(C(=O)CCC(=O)O)sc2cc1OC + COC1C(OC(N)=O)C(O)C(Oc2ccc3c(O)c(NC(=O)c4ccc(O)c(CC=C(C)C)c4)c(=O)oc3c2C)OC1(C)C too.
Output: 114

Input: Now give it for CCc1cc2c(N3CCc4c(cc(Cn5ccnc5)cc4-c4cn(C)nc4C(F)(F)F)C3=O)ccnc2c(OC)n1 + Nc1ccc(C#CCN(C(=O)Cc2ncc(C(F)(F)F)cc2C(F)(F)F)c2ccc(F)cc2)nn1 too.
Output: 102

Input: Now give it for COc1cc(C2c3cc4c(cc3C(OC3OC5COC(C)OC5C(O)C3O)C3COC(=O)C23)OCO4)cc(OC)c1O (stereo not given) + COC1C(OC(N)=O)C(O)C(Oc2ccc3c(O)c(NC(=O)c4ccc(O)c(CC=C(C)C)c4)c(=O)oc3c2C)OC1(C)C too.
Output: 77.3

Input: Now give it for CCc1cc2c(N3CCc4c(cc(Cn5ccnc5)cc4-c4cn(C)nc4C(F)(F)F)C3=O)ccnc2c(OC)n1 + COC1C(OC(N)=O)C(O)C(Oc2ccc3c(O)c(NC(=O)c4ccc(O)c(CC=C(C)C)c4)c(=O)oc3c2C)OC1(C)C too.
Output: 132

Input: Now give it for CCc1cc2c(N3CCc4c(cc(Cn5ccnc5)cc4-c4cn(C)nc4C(F)(F)F)C3=O)ccnc2c(OC)n1 + Cc1cccc(N(C)C(=O)C2C(O)CCN2c2nc(C)cc(C(F)(F)F)c2C#N)c1 too.
Output: 107

Input: Now give it for CC1COCCN1c1cc(-c2ccnn2C)c2ccnc(-c3ccn[nH]3)c2n1 (stereo not given) + Nc1ccc(C#CCN(C(=O)Cc2ncc(C(F)(F)F)cc2C(F)(F)F)c2ccc(F)cc2)nn1 too.
Output: 41.5

Input: Now give it for COc1cccc2c1C(=O)c1c(O)c3c(c(O)c1C2=O)CC(O)(C(=O)CO)CC3OC1CC(N)C(O)C(C)O1 (stereo not given) + COC1C(OC(N)=O)C(O)C(Oc2ccc3c(O)c(NC(=O)c4ccc(O)c(CC=C(C)C)c4)c(=O)oc3c2C)OC1(C)C too.
Output: 1.36

Input: Now give it for C=CC(=O)N1CCN(c2nc(=O)n(-c3c(C)ccnc3C(C)C)c3nc(-c4c(O)cccc4F)c(F)cc23)C(C)C1 (stereo not given) + Nc1ccc(C#CCN(C(=O)Cc2ncc(C(F)(F)F)cc2C(F)(F)F)c2ccc(F)cc2)nn1 too.
Output: 97.7
